system: HepG2; assay: Anticancer activity against human HepG2 cells assessed as inhibition of cell growth incubated for 24 hrs by MTT assay; assay type: functional, cell-based; details: HepG2, 24 h
Below, each entry is listed alongside its reported IC50.
Record the value in µM, omitting the unit from your answer.

With HepG2 as the test system, N#CC1=C(N)N(c2nnc3c4ccccc4nc(Sc4ccc(Br)cc4)n23)C(=O)C1 showed IC50 of 15.3

With HepG2 as the test system, Clc1nc2ccccc2c2nnc(/N=C/c3ccccc3)n12 showed IC50 of 19.3

With HepG2 as the test system, Clc1nc2ccccc2c2nnc(/N=C/C=C/c3ccccc3)n12 showed IC50 of 11.6

Next:
With HepG2 as the test system, Nc1cc([N+](=O)[O-])ccc1Nc1nc2ccccc2c2nnc(/N=C/C=C/c3ccccc3)n12 showed IC50 of 13.7

With HepG2 as the test system, Nc1ccc(Oc2nc3ccccc3c3nncn23)cc1 showed IC50 of 26.2

With HepG2 as the test system, CN1CCN(CCCNc2ccc(Oc3nc4ccccc4c4nncn34)cc2)CC1 showed IC50 of 16.5

With HepG2 as the test system, O=[N+]([O-])c1cccc(/C=N/c2nnc3c4ccccc4nc(Cl)n23)c1 showed IC50 of 55.5

With HepG2 as the test system, CN1CCN(CC(=O)Nc2nnc3c4ccccc4nc(Sc4ccc(Br)cc4)n23)CC1 showed IC50 of 27.2

---

tested on: HCT-116; experiment: Anticancer activity against human HCT116 cells assessed as inhibition of cell growth incubated for 24 hrs by MTT assay; type: functional, cell-based; settings: HCT-116, 24 h
Below, each entry is listed alongside its reported pIC50.
Quick note: pIC50 means taking -log10 of the concentration in moles per liter.

Some entries whose results are on file:
With HCT-116 as the test system, C(=N\c1nnc2c3ccccc3nc(Nc3ccccc3)n12)/c1ccccc1 showed pIC50 of 4.61

With HCT-116 as the test system, c1ccc2c(c1)nc(Oc1ccc(NCCCN3CCOCC3)cc1)n1cnnc21 showed pIC50 of 4.40

With HCT-116 as the test system, CCN1CCN(CC(=O)Nc2nnc3c4ccccc4nc(Sc4ccc(Br)cc4)n23)CC1 showed pIC50 of 4.82

With HCT-116 as the test system, Fc1ccc(/C=N/c2nnc3c4ccccc4nc(Cl)n23)cc1 showed pIC50 of 4.73

Next:
With HCT-116 as the test system, Nc1nnc2c3ccccc3nc(Sc3ccc(Br)cc3)n12 showed pIC50 of 4.20

With HCT-116 as the test system, Clc1nc2ccccc2c2nnc(/N=C/c3ccccc3)n12 showed pIC50 of 4.65

With HCT-116 as the test system, CCN1CCN(CCCNc2ccc(Oc3nc4ccccc4c4nncn34)cc2)CC1 showed pIC50 of 4.86

With HCT-116 as the test system, COc1ccc(/C=N/c2nnc3c4ccccc4nc(Nc4ccc(C)cc4N)n23)cc1O showed pIC50 of 5.08

With HCT-116 as the test system, O=[N+]([O-])c1cccc(/C=N/c2nnc3c4ccccc4nc(Nc4ccccc4)n23)c1 showed pIC50 of 4.46

With HCT-116 as the test system, O=C(Nc1nnc2c3ccccc3nc(Sc3ccc(Br)cc3)n12)c1ccc(Cl)c([N+](=O)[O-])c1 showed pIC50 of 4.69

With HCT-116 as the test system, Nc1ccc(Oc2nc3ccccc3c3nncn23)cc1 showed pIC50 of 4.56

---

biological target: Epidermal growth factor receptor (Homo sapiens); assay: Inhibition of human EGFR-TK using PTK substrate after 40 mins in presence of ATP by Kinase-Glo luminescent assay
Sequence (P00533 whole entry): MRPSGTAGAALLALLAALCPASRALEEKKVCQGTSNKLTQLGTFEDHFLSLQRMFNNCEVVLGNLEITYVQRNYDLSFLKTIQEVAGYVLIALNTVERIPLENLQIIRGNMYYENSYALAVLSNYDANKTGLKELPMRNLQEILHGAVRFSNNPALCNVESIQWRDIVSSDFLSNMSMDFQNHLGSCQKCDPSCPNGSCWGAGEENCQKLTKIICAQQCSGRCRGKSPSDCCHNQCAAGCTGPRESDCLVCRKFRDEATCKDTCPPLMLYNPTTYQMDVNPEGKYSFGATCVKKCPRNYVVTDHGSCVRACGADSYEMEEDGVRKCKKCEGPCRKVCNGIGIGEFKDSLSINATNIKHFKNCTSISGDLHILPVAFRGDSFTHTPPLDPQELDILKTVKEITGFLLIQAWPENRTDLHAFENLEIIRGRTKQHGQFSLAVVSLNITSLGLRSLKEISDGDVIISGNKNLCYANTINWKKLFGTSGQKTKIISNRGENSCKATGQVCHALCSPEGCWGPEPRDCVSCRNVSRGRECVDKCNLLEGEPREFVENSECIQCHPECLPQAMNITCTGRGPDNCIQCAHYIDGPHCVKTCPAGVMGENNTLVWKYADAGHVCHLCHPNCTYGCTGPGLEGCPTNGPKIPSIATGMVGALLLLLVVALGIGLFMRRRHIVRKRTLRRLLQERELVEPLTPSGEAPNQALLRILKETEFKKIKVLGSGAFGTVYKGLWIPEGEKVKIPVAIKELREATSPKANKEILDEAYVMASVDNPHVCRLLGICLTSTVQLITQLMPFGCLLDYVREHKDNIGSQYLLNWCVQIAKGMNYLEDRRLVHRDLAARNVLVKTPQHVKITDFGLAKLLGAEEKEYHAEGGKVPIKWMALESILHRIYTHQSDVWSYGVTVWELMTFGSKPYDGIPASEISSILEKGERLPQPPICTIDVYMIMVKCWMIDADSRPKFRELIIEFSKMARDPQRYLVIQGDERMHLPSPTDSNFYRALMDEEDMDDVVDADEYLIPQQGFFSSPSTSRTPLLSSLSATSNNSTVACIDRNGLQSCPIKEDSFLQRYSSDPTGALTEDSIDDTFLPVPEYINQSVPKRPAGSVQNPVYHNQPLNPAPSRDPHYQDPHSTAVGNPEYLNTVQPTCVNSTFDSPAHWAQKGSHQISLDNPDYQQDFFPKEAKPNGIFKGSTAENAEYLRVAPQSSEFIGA
Parameter: IC50 (µM)
Record the value in µM, omitting the unit from your answer.

With Epidermal growth factor receptor (Homo sapiens) as the test system, CCN1CCN(CCCNc2ccc(Oc3nc4ccccc4c4nncn34)cc2)CC1 showed IC50 of 9.51

With Epidermal growth factor receptor (Homo sapiens) as the test system, O=C1CSCC(=O)N1c1nnc2c3ccccc3nc(Sc3ccc(Br)cc3)n12 showed IC50 of 4.1

With Epidermal growth factor receptor (Homo sapiens) as the test system, CCN1CCN(CC(=O)Nc2nnc3c4ccccc4nc(Sc4ccc(Br)cc4)n23)CC1 showed IC50 of 3.91

Switching to the query record.
With Epidermal growth factor receptor (Homo sapiens) as the test system, Nc1nc(Nc2nnc3c4ccccc4nc(Sc4ccc(Br)cc4)n23)cs1 showed IC50 of 0.69

---

Below, each entry is listed alongside its reported pIC50.
test system: HepG2; experiment: Anticancer activity against human HepG2 cells assessed as inhibition of cell growth incubated for 24 hrs by MTT assay; type: functional, cell-based; conditions: HepG2, 24 h
Quick note: pIC50 means taking -log10 of the concentration in moles per liter.

pIC50 for CCN1CCN(CC(=O)Nc2nnc3c4ccccc4nc(Sc4ccc(Br)cc4)n23)CC1 is 4.94

pIC50 for c1ccc2c(c1)nc(Oc1ccc(NCCCN3CCOCC3)cc1)n1cnnc21 is 4.33

---

system: MCF7; assay: Cell cycle arrest in human MCF7 cells assessed as accumulation of cells at G0/G1 phase at IC50 after 24 hrs by propidium iodide/RNase staining based FACSCalibur flow cytometry analysis (reference value: 57.28 %); type: functional
Below, each entry is listed alongside its reported Activity.
Record the value in %, omitting the unit from your answer.

Some entries whose results are on file:
Activity for N#CC1=C(N)N(c2nnc3c4ccccc4nc(Sc4ccc(Br)cc4)n23)C(=O)C1 is 41.33

Activity for Clc1nc2ccccc2c2nnc(/N=C/c3ccco3)n12 is 46.72

Activity for COc1cccc2c1C(=O)c1c(O)c3c(c(O)c1C2=O)C[C@@](O)(C(=O)CO)C[C@@H]3O[C@H]1C[C@H](N)[C@H](O)[C@H](C)O1 [DOXORUBICIN] is 32.16

Switching to the query record.
Activity for Nc1nc(Nc2nnc3c4ccccc4nc(Sc4ccc(Br)cc4)n23)cs1 is 35.76

---

tested on: MCF7; assay: Induction of apoptosis in human MCF7 cells assessed as early apoptotic cells after 24 hrs by Annexin V-FITC/propidium iodide double staining based FACSCalibur flow cytometry analysis (reference value: 1.22 %); format: functional
Parameter: Activity
A complete answer gives the number followed by the unit.

Some entries whose results are on file:
Activity for Nc1nc(Nc2nnc3c4ccccc4nc(Sc4ccc(Br)cc4)n23)cs1 is 7.58%

Activity for COc1cccc2c1C(=O)c1c(O)c3c(c(O)c1C2=O)C[C@@](O)(C(=O)CO)C[C@@H]3O[C@H]1C[C@H](N)[C@H](O)[C@H](C)O1 is 9.28%

Activity for N#CC1=C(N)N(c2nnc3c4ccccc4nc(Sc4ccc(Br)cc4)n23)C(=O)C1 is 7.26%

Switching to the query record.
Activity for Clc1nc2ccccc2c2nnc(/N=C/c3ccco3)n12 is 2.92%

---

Below, each entry is listed alongside its reported IC50.
system: HCT-116; test: Anticancer activity against human HCT116 cells assessed as inhibition of cell growth incubated for 24 hrs by MTT assay; type: functional, cell-based; details: HCT-116, 24 h
Record the value in µM, omitting the unit from your answer.

Some entries whose results are on file:
IC50 for CN1CCN(CC(=O)Nc2nnc3c4ccccc4nc(Sc4ccc(Br)cc4)n23)CC1 is 44.9

IC50 for COc1ccc(/C=N/c2nnc3c4ccccc4nc(Cl)n23)cc1O is 31

IC50 for O=C(Nc1nnc2c3ccccc3nc(Sc3ccc(Br)cc3)n12)c1ccccc1 is 44.2

IC50 for Nc1cc([N+](=O)[O-])ccc1Nc1nc2ccccc2c2nnc(/N=C/C=C/c3ccccc3)n12 is 11.6

IC50 for O=C(CCl)Nc1nnc2c3ccccc3nc(Sc3ccc(Br)cc3)n12 is 37.5

Next:
IC50 for Clc1nc2ccccc2c2nnc(/N=C/C=C/c3ccccc3)n12 is 12.9

IC50 for Cc1cccc(Nc2nc3ccccc3c3nnc(/N=C/c4ccc(F)cc4)n23)c1 is 20.4

IC50 for C(=N\c1nnc2c3ccccc3nc(Nc3ccccc3)n12)/c1ccco1 is 24.4

IC50 for N#CC1=C(N)N(c2nnc3c4ccccc4nc(Sc4ccc(Br)cc4)n23)C(=O)C1 is 13.5

IC50 for CN1CCN(CCCNc2ccc(Oc3nc4ccccc4c4nncn34)cc2)CC1 is 17.2

IC50 for Nc1nc(Nc2nnc3c4ccccc4nc(Sc4ccc(Br)cc4)n23)cs1 is 11.5

IC50 for Clc1nc2ccccc2c2nnc(/N=C/c3ccco3)n12 is 14.8

IC50 for O=C1CSCC(=O)N1c1nnc2c3ccccc3nc(Sc3ccc(Br)cc3)n12 is 12

IC50 for c1ccc(N2CCN(CCCNc3ccc(Oc4nc5ccccc5c5nncn45)cc3)CC2)cc1 is 32.5

IC50 for O=[N+]([O-])c1cccc(/C=N/c2nnc3c4ccccc4nc(Cl)n23)c1 is 49.2

---

Below, each entry is listed alongside its reported pIC50.
tested on: HepG2; assay: Anticancer activity against human HepG2 cells assessed as inhibition of cell growth incubated for 24 hrs by MTT assay; assay type: functional, cell-based; conditions: HepG2, 24 h
Quick note: pIC50 means taking -log10 of the concentration in moles per liter.

Some entries whose results are on file:
pIC50 for Cc1cccc(Nc2nc3ccccc3c3nnc(/N=C/c4ccc(F)cc4)n23)c1 is 4.62

pIC50 for C(=N\c1nnc2c3ccccc3nc(Nc3ccccc3)n12)/c1ccco1 is 4.68

pIC50 for O=C(Nc1nnc2c3ccccc3nc(Sc3ccc(Br)cc3)n12)c1ccccc1 is 4.49

Next:
pIC50 for Clc1nc2ccccc2c2nnc(/N=C/c3ccco3)n12 is 4.82

pIC50 for Nc1nc(Nc2nnc3c4ccccc4nc(Sc4ccc(Br)cc4)n23)cs1 is 4.99

pIC50 for c1ccc(N2CCN(CCCNc3ccc(Oc4nc5ccccc5c5nncn45)cc3)CC2)cc1 is 4.62

pIC50 for COc1ccc(/C=N/c2nnc3c4ccccc4nc(Cl)n23)cc1O is 4.31

pIC50 for Fc1ccc(/C=N/c2nnc3c4ccccc4nc(Cl)n23)cc1 is 4.51

pIC50 for Nc1nnc2c3ccccc3nc(Sc3ccc(Br)cc3)n12 is 4.35
